subject.of.test: UniProtKB Q12866
Sequence (Q12866 21-999): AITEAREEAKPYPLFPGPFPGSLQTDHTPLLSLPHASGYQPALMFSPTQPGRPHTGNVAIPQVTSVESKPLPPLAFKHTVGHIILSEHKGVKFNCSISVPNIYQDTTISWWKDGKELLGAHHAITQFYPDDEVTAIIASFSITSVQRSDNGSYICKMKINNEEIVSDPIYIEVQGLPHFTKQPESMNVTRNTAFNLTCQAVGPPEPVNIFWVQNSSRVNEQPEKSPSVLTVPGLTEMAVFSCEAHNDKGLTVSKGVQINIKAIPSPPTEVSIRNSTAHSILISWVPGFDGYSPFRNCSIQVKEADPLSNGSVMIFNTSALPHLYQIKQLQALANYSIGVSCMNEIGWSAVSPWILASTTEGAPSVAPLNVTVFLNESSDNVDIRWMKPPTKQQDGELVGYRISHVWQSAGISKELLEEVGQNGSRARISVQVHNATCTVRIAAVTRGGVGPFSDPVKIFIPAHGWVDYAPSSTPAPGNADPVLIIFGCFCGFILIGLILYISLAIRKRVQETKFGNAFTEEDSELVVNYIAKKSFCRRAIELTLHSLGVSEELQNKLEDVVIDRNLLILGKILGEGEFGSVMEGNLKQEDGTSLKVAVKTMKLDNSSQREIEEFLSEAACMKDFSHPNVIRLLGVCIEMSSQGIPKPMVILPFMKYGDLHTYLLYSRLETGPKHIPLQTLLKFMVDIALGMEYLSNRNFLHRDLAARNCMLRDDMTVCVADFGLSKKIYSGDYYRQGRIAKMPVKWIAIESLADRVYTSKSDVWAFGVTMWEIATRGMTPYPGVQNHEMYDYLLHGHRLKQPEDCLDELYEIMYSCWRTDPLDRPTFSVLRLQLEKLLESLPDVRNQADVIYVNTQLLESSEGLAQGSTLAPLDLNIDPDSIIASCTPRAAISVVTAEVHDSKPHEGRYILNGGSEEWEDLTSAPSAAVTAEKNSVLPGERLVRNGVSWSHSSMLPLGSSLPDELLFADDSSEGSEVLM
pIC50: −log10 of the molar value.
Measured pIC50 by item

1. C[C@@H]1CCCN1C1(C)CCc2ccc(-c3cnc4[nH]nc(-c5ccc(C(=O)NC6CC6)cc5)c4c3)cc2CC1 (stereo partly shown) [Example 69]; 6.00 to 7.00

Case C[C@@H]1CCCN1C1CCc2ccc(-c3cnc4[nH]nc(-c5cnc(C(C)(C)O)c(Cl)c5)c4c3)cc2CC1 (stereo partly shown) [Example 65] , UniProtKB Q12866, pIC50 recorded as 6.00 to 7.00

Case CC(C)(O)c1ccc(-c2n[nH]c3ncc(-c4ccc5c(c4)CCN(C4CCCC4)CC5)cc23)cc1C(F)(F)F [Example 16] , UniProtKB Q12866, pIC50 recorded as 6.00 to 7.00

---

subject.of.test: Axl (Homo sapiens, UniProt P30530)
assay.method.text: Axl NanoBRET intracellular kinase assay (intracellular binding, Cell Binding)
Design: host or cells: HEK-293
test.conditions: HEK-293 cells transfected with Axl-NanoLuc fusion vector; 0.35 μM K-5 NanoBRET tracer
Procedure: Axl NanoBRET™ intracellular kinase assay (Promega, N2540) was performed according to manufacturer's recommendation. […] The day of the assay, the cells were collected and resuspended in Opti-MEM media (ThermoFisher, 31985070) at 2e5 cells/mL concentration. […] The plate was then immediately read utilizing an Envision (Perkin Elmer) plate reader. The BRET signal is measured by taking the ratio of the emissions reading at 610 nm and 450 nm. […]
pIC50: −log10 of the molar value.
Measured pIC50 by item

The recorded pIC50 for CC(C)(O)c1ccc(-c2n[nH]c3ncc(-c4ccc5c(c4)CCC(N4CCC[C@@H]4CO)CC5)cc23)cc1Cl (stereo partly shown) is > 7.00

---

subject.of.test: Axl (Homo sapiens, UniProt P30530)
Sequence (P30530 26-894): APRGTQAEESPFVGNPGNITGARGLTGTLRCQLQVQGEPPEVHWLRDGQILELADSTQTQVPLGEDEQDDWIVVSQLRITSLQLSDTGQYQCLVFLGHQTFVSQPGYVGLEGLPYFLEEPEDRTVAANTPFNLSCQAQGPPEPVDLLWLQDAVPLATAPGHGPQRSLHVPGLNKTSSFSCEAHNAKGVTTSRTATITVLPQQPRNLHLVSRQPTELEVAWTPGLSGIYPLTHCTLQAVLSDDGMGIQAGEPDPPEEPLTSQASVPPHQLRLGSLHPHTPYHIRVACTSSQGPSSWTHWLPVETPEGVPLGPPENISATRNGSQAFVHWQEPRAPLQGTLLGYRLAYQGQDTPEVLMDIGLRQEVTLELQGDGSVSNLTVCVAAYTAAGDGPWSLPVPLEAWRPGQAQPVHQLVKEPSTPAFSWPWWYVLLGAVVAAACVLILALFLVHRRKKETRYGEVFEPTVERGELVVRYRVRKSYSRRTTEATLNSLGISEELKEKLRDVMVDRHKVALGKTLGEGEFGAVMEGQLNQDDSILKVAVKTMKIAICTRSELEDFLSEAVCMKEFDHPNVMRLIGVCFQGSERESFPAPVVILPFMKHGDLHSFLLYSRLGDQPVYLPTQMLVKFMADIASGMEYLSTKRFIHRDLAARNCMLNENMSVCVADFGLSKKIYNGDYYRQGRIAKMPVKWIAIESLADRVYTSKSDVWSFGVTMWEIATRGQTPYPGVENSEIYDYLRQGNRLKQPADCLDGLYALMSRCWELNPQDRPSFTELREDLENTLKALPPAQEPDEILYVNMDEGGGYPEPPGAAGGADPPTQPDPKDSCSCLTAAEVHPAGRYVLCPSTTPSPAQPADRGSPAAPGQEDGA
assay.method.text: Axl NanoBRET intracellular kinase assay (intracellular binding, Cell Binding)
Design: host or cells: HEK-293
test.conditions: HEK-293 cells transfected with Axl-NanoLuc fusion vector; 0.35 μM K-5 NanoBRET tracer
measure: IC50

1) C[C@@H]1CCCN1C1(C)CCc2ccc(-c3cnc4[nH]nc(-c5ccc(C(=O)N6CCCC6)cc5)c4c3)cc2CC1 (stereo partly shown); < 100 nM
2) COCCN1CCc2ccc(-c3cnc4[nH]nc(-c5ccc(C(C)(C)O)c(Cl)c5)c4c3)cc2CC1; > 1000 nM

The recorded IC50 for CS(=O)(=O)N1CCC(c2n[nH]c3ncc(-c4ccc5c(c4)CCC(N4CCCC4)CC5)cc23)CC1 (stereo not shown) is 100 to 1000 nM

The recorded IC50 for COCCNC(=O)c1ccc(-c2n[nH]c3ncc(-c4ccc5c(c4)CCC(C)(N4CCC[C@H]4C)CC5)cc23)cc1 (stereo partly shown) is < 100 nM

The recorded IC50 for NC(=O)c1ccc(-c2n[nH]c3ncc(-c4ccc5c(c4)CCC(N4CCCC4)CC5)cc23)cc1F (stereo not shown) is < 100 nM

The recorded IC50 for CNC(=O)c1ccc(-c2n[nH]c3ncc(-c4ccc5c(c4)CCC(C)(N4CCC[C@H]4C)CC5)cc23)cc1 (stereo partly shown) is < 100 nM

The recorded IC50 for COCCS(=O)(=O)c1ccc(-c2n[nH]c3ncc(-c4ccc5c(c4)CCC(C)(N4CCC[C@H]4C)CC5)cc23)cc1 (stereo partly shown) is < 100 nM
